Target: JAK2 (Homo sapiens)
Construct: host or cells: baculovirus expression system
Assay: Recombinant Human JAK2 Kinase Assay (TRF)
Assay type: biochemical
Conditions: JAK2 kinase inhibition, 0.2 μM ATP; read-out: JAK2 Potency
MEASURED_METRIC: IC50

Worked cases, answers included:
>  <COMPOUND>
COc1ccc(C(=O)N2CCN(C)CC2)cc1Nc1ncc2ccc(-c3ccccc3N(C)S(C)(=O)=O)n2n1 [Example 496]

>  <SYSTEM_TESTED>
JAK2 (Homo sapiens)

>  <RESULT>
> 10000 nM

$$$$
>  <COMPOUND>
COc1ccc(-c2ccc3cnc(Nc4ccc5c(c4)N(C)CCC5)nn23)cn1 [Example 980]

>  <SYSTEM_TESTED>
JAK2 (Homo sapiens)

>  <RESULT>
< 100 nM

$$$$
>  <COMPOUND>
COc1cc(N2CCN(c3ccccn3)CC2)ccc1Nc1ncc2ccc(-c3ccccc3OC)n2n1 [Example 994]

>  <SYSTEM_TESTED>
JAK2 (Homo sapiens)

>  <RESULT>
100 to 1000 nM

$$$$
>  <COMPOUND>
COc1cc(C2CCN(C(=O)C(C)(C)N)CC2)ccc1Nc1ncc2ccc(-c3ccccc3OC)n2n1 [Example 821]

>  <SYSTEM_TESTED>
JAK2 (Homo sapiens)

>  <RESULT>
100 to 1000 nM

$$$$
>  <COMPOUND>
N#Cc1ccccc1-c1ccc2cnc(Nc3ccc(C4CCN(CC(N)=O)CC4)cc3)nn12 [Example 513]

>  <SYSTEM_TESTED>
JAK2 (Homo sapiens)

>  <RESULT>
< 100 nM

$$$$

Hello, I would appreciate it if you could give IC50 for each entry below.
1. COc1cc2c(cc1Nc1ncc3ccc(-c4ccccc4N(C)S(C)(=O)=O)n3n1)CN(C(=O)CN)C2 [Example 879]
2. Cc1ccncc1-c1ccc2cnc(Nc3ccc(N4CCOCC4)cc3)nn12 [Example 1038]
3. Cn1cc(-c2ccc3cnc(Nc4ccc5c(c4)CCC(N4CCOCC4)CC5)nn23)cn1 (stereo not shown) [Example 1201]

["100 to 1000 nM", "< 100 nM", "< 100 nM"]

Hello, I would appreciate it if you could give IC50 for each entry below.
1. CN(c1ccccc1-c1ccc2cnc(Nc3cnn(C4CCNCC4)c3)nn12)S(C)(=O)=O [Example 717]
2. COc1ccccc1-c1ccc2cnc(Nc3ccc4c(c3)CCN(CC(N)=O)C4)nn12 [Example 917]
3. COc1ccccc1-c1ccc2cnc(Nc3ccc4c(c3)CS(=O)(=O)C4)nn12 [Example 659]
4. COc1cc(C2CCN(C)CC2)ccc1Nc1ncc2ccc(-c3cccc(S(=O)(=O)NC4CC4)c3)n2n1 [Example 696]
5. O=S(=O)(CC1CC1)c1cccc(-c2ccc3cnc(Nc4ccc5nc(C(F)(F)F)[nH]c5c4)nn23)c1 [Example 1318]
6. COc1cc(C2CCN(CC(N)=O)CC2)ccc1Nc1ncc2cc(C)c(-c3ccccc3N(C)S(C)(=O)=O)n2n1 [Example 515]
7. CS(=O)(=O)Nc1ccccc1-c1ccc2cnc(Nc3cccc(OCCN4CCOCC4)c3)nn12 [Example 1002]
8. CS(=O)(=O)c1ccc(-c2ccc3cnc(Nc4ccc(-c5cccnc5)cc4)nn23)cc1 [Example 1089]

["< 100 nM", "< 100 nM", "< 100 nM", "100 to 1000 nM", "< 100 nM", "1000 to 10000 nM", "< 100 nM", "< 100 nM"]

Hello, I would appreciate it if you could give IC50 for each entry below.
1. COc1cc([C@@H]2CCN(CCF)C[C@@H]2O)ccc1Nc1ncc2ccc(-c3ccccc3N(C)S(C)(=O)=O)n2n1 (racemic) [Example 843]
2. Cc1cc2cnc(Nc3ccc(C4CCN(CC(N)=O)CC4)cc3)nn2c1-c1ccccc1N(C)S(C)(=O)=O [Example 516]
3. CS(=O)(=O)c1cccc(-c2ccc3cnc(Nc4ccc(Cl)c(OC[C@H]5CCCN5)c4)nn23)c1 [Example 1021]
4. CC(C)(C)NS(=O)(=O)c1cccc(-c2ccc3cnc(Nc4cccc(OCCN5CCOCC5)c4)nn23)c1 [Example 1001]
5. CN1CCC(c2ccc(Nc3ncc4ccc(-c5ccn(C)n5)n4n3)cc2)CC1 [Example 954]

1: 100 to 1000 nM; 2: < 100 nM; 3: < 100 nM; 4: < 100 nM; 5: < 100 nM

---

Biological target: JAK2 (Homo sapiens, UniProt O60674)
Construct: host or cells: baculovirus expression system
Sequence (O60674 whole entry): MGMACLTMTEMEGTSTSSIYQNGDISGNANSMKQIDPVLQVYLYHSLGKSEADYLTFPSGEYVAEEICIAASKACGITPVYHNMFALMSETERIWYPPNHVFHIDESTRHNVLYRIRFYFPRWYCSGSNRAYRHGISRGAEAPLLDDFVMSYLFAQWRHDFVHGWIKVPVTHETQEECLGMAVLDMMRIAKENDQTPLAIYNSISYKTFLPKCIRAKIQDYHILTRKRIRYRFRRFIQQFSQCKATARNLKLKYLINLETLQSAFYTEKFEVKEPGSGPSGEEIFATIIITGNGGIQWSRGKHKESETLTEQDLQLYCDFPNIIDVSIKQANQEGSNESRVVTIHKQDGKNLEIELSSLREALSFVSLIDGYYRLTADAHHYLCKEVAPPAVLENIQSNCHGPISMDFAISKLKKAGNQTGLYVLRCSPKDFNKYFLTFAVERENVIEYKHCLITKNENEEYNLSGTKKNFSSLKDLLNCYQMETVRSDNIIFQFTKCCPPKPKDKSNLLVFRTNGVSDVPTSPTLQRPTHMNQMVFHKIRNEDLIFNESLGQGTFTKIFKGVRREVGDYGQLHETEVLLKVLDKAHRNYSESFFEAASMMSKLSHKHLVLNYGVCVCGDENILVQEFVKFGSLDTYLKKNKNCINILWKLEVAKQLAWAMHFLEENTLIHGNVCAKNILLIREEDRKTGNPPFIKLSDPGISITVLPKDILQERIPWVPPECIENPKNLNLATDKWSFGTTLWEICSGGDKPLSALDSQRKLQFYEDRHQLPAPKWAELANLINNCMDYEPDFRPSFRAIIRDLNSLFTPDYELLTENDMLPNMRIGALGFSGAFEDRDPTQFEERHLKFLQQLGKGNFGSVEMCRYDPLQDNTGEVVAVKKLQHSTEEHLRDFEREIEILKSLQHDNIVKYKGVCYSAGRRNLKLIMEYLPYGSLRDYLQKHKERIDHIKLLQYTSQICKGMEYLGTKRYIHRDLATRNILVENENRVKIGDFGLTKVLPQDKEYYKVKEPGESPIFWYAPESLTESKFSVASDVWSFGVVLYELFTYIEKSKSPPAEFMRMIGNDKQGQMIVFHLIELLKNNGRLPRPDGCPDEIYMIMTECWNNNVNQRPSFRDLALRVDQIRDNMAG
Experiment: Recombinant Human JAK2 Kinase Assay (TRF)
Assay type: biochemical
Settings: JAK2 kinase inhibition, 0.2 μM ATP; read-out: JAK2 Potency
Procedure: Compounds were tested for their ability to inhibit the kinase activity of baculovirus-expressed JAK2 using the TRF detection system. […] The plates were coated first with 100 μL/well of 10 μg/mL Neutravidin (Pierce #31000, Rockford, Ill.) in TBS at 37° C. for 2 hours, followed by 100 μL/well of 1 μg/mL 15-mer peptide substrate (biotinyl-amino-hexanoyl-[…]-amide, Infinity Biotech Research and Resource, Aston, Pa.) at 37° C. for another hour. […]
pIC50: −log10 of the molar value.
MEASURED_METRIC: pIC50

>  <MOLECULE>
CCN(c1ccccc1-c1ccc2cnc(Nc3ccc(C4CCN(C[C@@H](C)O)CC4)cc3OC)nn12)S(C)(=O)=O [Example 873]

>  <SYSTEM_TESTED>
JAK2 (Homo sapiens, UniProt O60674)

>  <pIC50>
6.00 to 7.00

$$$$
>  <MOLECULE>
COc1cc(C2CCN(C(=O)CN)CC2)ccc1Nc1ncc2ccc(-c3ccccc3OC)n2n1 [Example 823]

>  <SYSTEM_TESTED>
JAK2 (Homo sapiens, UniProt O60674)

>  <pIC50>
6.00 to 7.00

$$$$
>  <MOLECULE>
COc1cc(C2CCN(C(=O)OC(C)(C)C)CC2)ccc1Nc1ncc2ccc(-c3ccccc3OC)n2n1 [Example 817]

>  <SYSTEM_TESTED>
JAK2 (Homo sapiens, UniProt O60674)

>  <pIC50>
< 5.00

$$$$
>  <MOLECULE>
Cc1cc(Nc2ncc3ccc(-c4cccc(S(C)(=O)=O)c4)n3n2)ccc1C1CCN(CC(N)=O)CC1 [Example 948]

>  <SYSTEM_TESTED>
JAK2 (Homo sapiens, UniProt O60674)

>  <pIC50>
> 7.00

$$$$

Hello, I would appreciate it if you could give pIC50 for each entry below.
1. COc1cc(N(C)C(=O)CN2CCN(C)CC2)ccc1Nc1ncc2ccc(-c3ccccc3N(C)S(C)(=O)=O)n2n1 [Example 471]
2. COc1cc2c(cc1Nc1ncc3ccc(-c4ccccc4OC)n3n1)CCC1(CCN(C)CC1)O2 [Example 997]
3. Cc1cc(Nc2ncc3ccc(-c4ccc(S(C)(=O)=O)cc4)n3n2)ccc1C1CCN(CC(N)=O)CC1 [Example 949]

5.00 to 6.00
6.00 to 7.00
> 7.00

---

Target: ALK (Homo sapiens, UniProt Q9UM73)
Construct: host or cells: baculovirus expression system
Sequence (Q9UM73 19-1620): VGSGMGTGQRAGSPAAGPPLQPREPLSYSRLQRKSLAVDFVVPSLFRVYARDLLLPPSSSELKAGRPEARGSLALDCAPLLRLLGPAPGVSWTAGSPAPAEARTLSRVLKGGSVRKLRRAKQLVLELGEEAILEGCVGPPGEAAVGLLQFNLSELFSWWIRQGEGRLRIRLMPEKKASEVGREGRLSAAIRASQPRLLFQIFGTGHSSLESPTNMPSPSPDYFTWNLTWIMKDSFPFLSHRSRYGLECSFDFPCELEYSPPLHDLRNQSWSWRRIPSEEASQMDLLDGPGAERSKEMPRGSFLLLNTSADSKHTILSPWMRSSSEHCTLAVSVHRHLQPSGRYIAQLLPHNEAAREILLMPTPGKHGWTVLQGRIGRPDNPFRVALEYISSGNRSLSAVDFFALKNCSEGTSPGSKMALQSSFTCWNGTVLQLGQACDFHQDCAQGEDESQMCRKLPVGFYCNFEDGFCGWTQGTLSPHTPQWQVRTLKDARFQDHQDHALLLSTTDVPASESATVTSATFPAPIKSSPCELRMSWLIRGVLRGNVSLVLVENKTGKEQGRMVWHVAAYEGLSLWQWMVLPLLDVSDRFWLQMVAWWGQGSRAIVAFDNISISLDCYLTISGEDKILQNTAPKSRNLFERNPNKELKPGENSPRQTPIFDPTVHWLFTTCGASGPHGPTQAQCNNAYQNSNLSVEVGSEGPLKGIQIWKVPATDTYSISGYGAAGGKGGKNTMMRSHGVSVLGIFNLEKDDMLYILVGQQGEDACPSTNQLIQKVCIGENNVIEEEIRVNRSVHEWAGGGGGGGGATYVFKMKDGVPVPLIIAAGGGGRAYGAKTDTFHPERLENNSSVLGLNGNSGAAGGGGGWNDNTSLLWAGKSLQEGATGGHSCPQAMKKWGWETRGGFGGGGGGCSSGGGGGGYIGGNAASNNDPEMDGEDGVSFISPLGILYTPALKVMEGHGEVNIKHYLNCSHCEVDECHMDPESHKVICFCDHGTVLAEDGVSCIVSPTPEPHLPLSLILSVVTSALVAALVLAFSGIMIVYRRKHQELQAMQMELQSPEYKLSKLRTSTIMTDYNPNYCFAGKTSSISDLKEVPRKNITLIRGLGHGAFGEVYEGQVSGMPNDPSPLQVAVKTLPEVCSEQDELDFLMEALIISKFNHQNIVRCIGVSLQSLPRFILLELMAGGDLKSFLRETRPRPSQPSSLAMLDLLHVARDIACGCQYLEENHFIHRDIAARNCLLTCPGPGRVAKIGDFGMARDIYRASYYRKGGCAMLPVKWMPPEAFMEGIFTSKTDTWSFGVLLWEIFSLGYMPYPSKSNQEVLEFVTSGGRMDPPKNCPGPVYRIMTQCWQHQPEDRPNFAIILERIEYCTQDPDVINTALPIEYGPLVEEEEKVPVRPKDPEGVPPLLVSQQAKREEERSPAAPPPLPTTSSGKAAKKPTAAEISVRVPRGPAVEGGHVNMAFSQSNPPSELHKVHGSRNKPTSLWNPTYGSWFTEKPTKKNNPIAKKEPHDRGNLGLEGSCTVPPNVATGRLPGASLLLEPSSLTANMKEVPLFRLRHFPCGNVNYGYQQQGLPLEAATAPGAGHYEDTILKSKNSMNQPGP
Assay: ALK Kinase Assay (ELISA/TRF, PLC-γ substrate)
Format: biochemical
Conditions: ALK kinase inhibition, 1 μM ATP; read-out: ALK Potency
Exercise: for every item that follows, state its recorded IC50.

Worked cases, answers included:
>  <COMPOUND>
CN1CCN(c2ccc(Nc3ncc4c(-c5ccc(F)cc5)ccn4n3)cc2)CC1 [Example 726]

>  <IC50>
1 to 10 µM

$$$$
>  <COMPOUND>
CC(=O)N1CCCCc2ccc(Nc3ncc4ccc(-c5cccc(NS(C)(=O)=O)c5)n4n3)cc21 [Example 633]

>  <IC50>
1 to 10 µM

$$$$

Hello, I would appreciate it if you could give IC50 for each entry below.
1. COc1cc(C2CCNCC2)ccc1Nc1ncc2ccc(-c3ccc(C)cc3N(C)S(C)(=O)=O)n2n1 [Example 1281]
2. CN1CCN(c2ccc(Nc3ncc4ccc(-c5cncc(CNCCS(C)(=O)=O)c5)n4n3)cc2)CC1 [Example 1198]

["< 0.1 µM", "1 to 10 µM"]

---

Molecular target: JAK2 (Homo sapiens, UniProt O60674)
Construct: host or cells: baculovirus expression system
Test: Recombinant Human JAK2 Kinase Assay (TRF)
Assay type: biochemical
Settings: JAK2 Kinase Inhibition; read-out: JAK2 Potency
pIC50: −log10 of the molar value.
MEASURED_METRIC: pIC50

Worked cases, answers included:
>  <MOLECULE>
c1ccc(NCc2ccc3cnc(Nc4ccc(N5CCOCC5)cc4)nn23)cc1 [Example 362]

>  <RESULT>
> 7.00

$$$$
>  <MOLECULE>
Fc1cccc(-c2ccc3cnc(Nc4cccc(N5CCOCC5)c4)nn23)c1 [Example 175]

>  <RESULT>
> 7.00

$$$$
>  <MOLECULE>
COc1ccc2c(c1)cc1cnc(Nc3ccc(N4CCOCC4)cc3)nn12 [Example 268]

>  <RESULT>
> 7.00

$$$$

Hello, I would appreciate it if you could give pIC50 for each entry below.
1. CC(C)(O)CN1CCN(c2ccc(Nc3ncc4ccc(-c5cccc(Cl)c5)n4n3)cc2)CC1 [Example 223]
2. CN(c1ccccc1-c1ccc2cnc(Nc3cccc(N4CCOCC4)c3)nn12)S(C)(=O)=O [Example 410]

1: > 7.00; 2: > 7.00

Hello, I would appreciate it if you could give pIC50 for each entry below.
1. CCCS(=O)(=O)Nc1cccc(-c2ccc3cnc(Nc4ccc(N5CCOCC5)cc4)nn23)c1 [Example 418]
2. COc1ccccc1-c1ccc2cnc(Nc3ccc(N4CCC(N5CCN(C)CC5)CC4)cc3)nn12 [Example 310]
3. CS(=O)(=O)Nc1cccc(-c2ccc3cnc(Nc4ccc(N5CCOCC5)cc4F)nn23)c1 [Example 371]
4. COc1ccccc1-c1ccc2cnc(Nc3cc(OC)c(OC)c(OC)c3)nn12 [Example 142]
5. COc1cc(N2CCC(N3CCN(C)CC3)CC2)ccc1Nc1ncc2ccc(-c3cccnc3)n2n1 [Example 241]
6. CC(C)(C)NS(=O)(=O)c1cccc(-c2ccc3cnc(Nc4ccc(OCCN5CCCC5)cc4)nn23)c1 [Example 118]

> 7.00
> 7.00
> 7.00
> 7.00
6.00 to 7.00
> 7.00

Hello, I would appreciate it if you could give pIC50 for each entry below.
1. COc1ccccc1-c1ccc2cnc(Nc3ccc(C(=O)N4CCN(C)CC4)cc3)nn12 [Example 318]
2. COc1ccccc1-c1ccc2cnc(Nc3ccc(C(C)C)c(NC(C)=O)c3)nn12 [Example 301]
3. Clc1cccc(-c2ccc3cnc(Nc4ccc(N5CCC(N6CCOCC6)CC5)cc4)nn23)c1 [Example 336]
4. CS(=O)(=O)CCNC(=O)c1ccc(-c2ccc3cnc(Nc4ccc(N5CCOCC5)cc4)nn23)cc1 [Example 117]

1: > 7.00; 2: > 7.00; 3: > 7.00; 4: > 7.00

Hello, I would appreciate it if you could give pIC50 for each entry below.
1. COc1cc(N2CCC(C)(N3CCOCC3)CC2)ccc1Nc1ncc2ccc(-c3ccccc3N(C)S(C)(=O)=O)n2n1 [Example 1468]
2. O=S(=O)(NCCO)c1cccc(-c2ccc3cnc(Nc4ccc(N5CCOCC5)cc4)nn23)c1 [Example 368]

1. 6.00 to 7.00
2. > 7.00

Hello, I would appreciate it if you could give pIC50 for each entry below.
1. COc1cc(N2CCCC(N3CCOCC3)C2)ccc1Nc1ncc2ccc(-c3ccccc3OC)n2n1 (centres unmarked) [Example 1444]
2. CSc1cc(N2CCN(C[C@H](C)O)CC2)c(F)cc1Nc1ncc2ccc(-c3ccccc3N(C)S(C)(=O)=O)n2n1 [Example 1483]
3. CC(=O)N1CCCC(C)(C)c2ccc(Nc3ncc4ccc(-c5cccc(S(=O)(=O)NC(C)(C)C)c5)n4n3)cc21 [Example 1369]

1. 6.00 to 7.00
2. 5.00 to 6.00
3. > 7.00

Hello, I would appreciate it if you could give pIC50 for each entry below.
1. c1ccc(-c2ccc3cnc(NCCN4CCOCC4)nn23)cc1 [Example 28]
2. COc1ccc(-c2ccc3cnc(Nc4cccc(C5CN(C)CCN5C)c4)nn23)cn1 (centres unmarked) [Example 1519]
3. CN1CCN(C2CCN(c3ccc(Nc4ncc5ccc(-c6cccnc6)n5n4)cc3)CC2)CC1 [Example 313]

1: 5.00 to 6.00; 2: > 7.00; 3: > 7.00

Hello, I would appreciate it if you could give pIC50 for each entry below.
1. COc1ccc(Nc2ncc3ccc(-c4cc(Cl)ccc4OC)n3n2)cc1 [Example 153]
2. COc1ccc(-c2ccc3cnc(Nc4ccc(N5CCN(CC(N)=O)CC5)c(F)c4)nn23)cn1 [Example 1414]
3. COc1cc(N2CCC(F)(F)CC2)ccc1Nc1ncc2ccc(-c3ccccc3N(C)S(C)(=O)=O)n2n1 [Example 1469]
4. OC(c1ccccc1)c1ccc2cnc(Nc3ccc(N4CCOCC4)cc3)nn12 (centres unmarked) [Example 383]
5. COc1cc(Nc2ncc3ccc(-c4ccccc4OC)n3n2)cc(OC)c1 [Example 158]

1. > 7.00
2. > 7.00
3. 6.00 to 7.00
4. > 7.00
5. > 7.00

Hello, I would appreciate it if you could give pIC50 for each entry below.
1. COc1ccccc1NCc1ccc2cnc(Nc3ccc(N4CCOCC4)cc3)nn12 [Example 364]
2. CN1CCN(c2ccc(Nc3ncc4ccc(-c5ccc(C(=O)N6CCOCC6)cc5)n4n3)cc2)CC1 [Example 19]
3. CN1CCN(c2ccc(Nc3ncc4ccc(-c5ccc(S(C)(=O)=O)cc5)n4n3)cc2)CC1 [Example 59]
4. CN1CCN(c2ccc(Nc3ncc4ccc(-c5cnn(C)c5)n4n3)cc2)CC1 [Example 18]

["> 7.00", "> 7.00", "> 7.00", "> 7.00"]
